// reported pIC50 for each item listed
- tested_system: SIK2 (Homo sapiens, UniProt Q9H0K1)
- Construct: purchased ThermoFisher Scientific PV4792
- Sequence (Q9H0K1 whole entry): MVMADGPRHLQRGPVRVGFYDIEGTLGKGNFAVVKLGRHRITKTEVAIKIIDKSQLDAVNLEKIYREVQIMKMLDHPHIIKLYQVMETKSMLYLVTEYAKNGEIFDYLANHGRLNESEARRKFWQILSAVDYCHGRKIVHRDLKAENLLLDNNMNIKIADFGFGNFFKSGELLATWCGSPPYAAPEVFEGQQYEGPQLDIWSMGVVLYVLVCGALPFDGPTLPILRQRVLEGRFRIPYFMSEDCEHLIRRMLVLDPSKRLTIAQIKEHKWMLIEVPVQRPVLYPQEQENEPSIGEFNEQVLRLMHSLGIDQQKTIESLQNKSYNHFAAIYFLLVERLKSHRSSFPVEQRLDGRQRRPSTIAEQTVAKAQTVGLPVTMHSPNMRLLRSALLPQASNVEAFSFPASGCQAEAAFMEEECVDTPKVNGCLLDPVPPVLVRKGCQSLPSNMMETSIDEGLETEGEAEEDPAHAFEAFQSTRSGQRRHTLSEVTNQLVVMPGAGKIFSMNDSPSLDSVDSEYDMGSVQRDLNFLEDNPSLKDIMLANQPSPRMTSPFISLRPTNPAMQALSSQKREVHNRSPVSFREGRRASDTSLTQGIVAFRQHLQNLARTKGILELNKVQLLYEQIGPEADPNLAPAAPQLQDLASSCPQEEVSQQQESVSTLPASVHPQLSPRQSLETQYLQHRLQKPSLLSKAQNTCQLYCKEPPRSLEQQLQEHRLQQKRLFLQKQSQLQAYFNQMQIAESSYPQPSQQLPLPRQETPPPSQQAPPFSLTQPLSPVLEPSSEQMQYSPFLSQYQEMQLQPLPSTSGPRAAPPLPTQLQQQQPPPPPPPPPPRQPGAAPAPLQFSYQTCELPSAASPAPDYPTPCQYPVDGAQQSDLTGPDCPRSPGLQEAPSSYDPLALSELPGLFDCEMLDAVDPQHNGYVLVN
- measurement_notes: ADP-Glo kinase assay, SIK2
- Assay type: biochemical
pIC50: −log10 of the molar value.

# compound, tested_system, pIC50
rows = [
    ("COc1cc(-c2cnc3cc(C(C)(C)C#N)ccn23)cc(OC(F)F)c1C(=O)N1CC(O)C1 [Cpd 50]", "SIK2 (Homo sapiens, UniProt Q9H0K1)", "< 6.30"),
    ("COc1cc(-c2cnc3cc(C4(C#N)CCOC4)ccn23)cc(OC(F)F)c1C(=O)NC1CC1 (stereo not shown) [Cpd 123]", "SIK2 (Homo sapiens, UniProt Q9H0K1)", "< 6.30"),
    ("COc1cc(-c2cnc3cc(C(C)(C)C#N)ccn23)cc(OC(F)F)c1C(=O)N1CC2(COC2)C1 [Cpd 51]", "SIK2 (Homo sapiens, UniProt Q9H0K1)", "< 6.30"),
    ("[2H]C([2H])([2H])C(C#N)(c1ccn2c(-c3cc(OC)c(C(=O)NC4CC4)c(OC(F)F)c3)cnc2c1)C([2H])([2H])[2H] [Cpd 230]", "SIK2 (Homo sapiens, UniProt Q9H0K1)", "6.30 to 7.00"),
    ("COc1cc(-c2cnc3cc(C(C)(C)O)ccn23)cc(OC(F)F)c1C(=O)N[C@@H]1C[C@@H]1F [Cpd 211]", "SIK2 (Homo sapiens, UniProt Q9H0K1)", "6.30 to 7.00"),
    ("COc1cc(-c2cnc3cc(C4(O)COC4)ccn23)cc(OC(F)F)c1C(=O)N[C@@H]1C[C@@H]1F [Cpd 223]", "SIK2 (Homo sapiens, UniProt Q9H0K1)", "6.30 to 7.00"),
    ("COc1cc(-c2cnc3cc(C(C)C#N)ccn23)cc(OC(F)F)c1C(=O)NC1CC1 (stereo not shown) [Cpd 26]", "SIK2 (Homo sapiens, UniProt Q9H0K1)", "6.30 to 7.00"),
    ("COc1cc(-c2cnn3cc(C(C)(C)C#N)ccc23)cc(OC(F)F)c1C(=O)NC1CC1 [Cpd 208]", "SIK2 (Homo sapiens, UniProt Q9H0K1)", "< 6.30"),
    ("COc1cc(-c2cnc3cc(C(C)(C)C#N)ccn23)cc2c1C(=O)N(CC(F)(F)F)CC2 [Cpd 25]", "SIK2 (Homo sapiens, UniProt Q9H0K1)", "< 6.30"),
    ("COc1cc(-c2cnc3cc(C(C)(C)C(O)C(C)C)ccn23)cc(OC(F)F)c1C(=O)NC1CC1 (stereo not shown) [Cpd 202]", "SIK2 (Homo sapiens, UniProt Q9H0K1)", "< 6.30"),
    ("COc1cn2c(-c3cc(OC)c(C(=O)NC4CC4)c(OC(F)F)c3)cnc2cc1C(C)(C)C#N [Cpd 200]", "SIK2 (Homo sapiens, UniProt Q9H0K1)", "6.30 to 7.00"),
    ("CCC(C)(C#N)c1ccn2c(-c3cc(OC)c(C(=O)NC4CC4)c(OC(F)F)c3)cnc2c1 (stereo not shown) [Cpd 27]", "SIK2 (Homo sapiens, UniProt Q9H0K1)", "< 6.30"),
    ("COc1cc(-c2cnc3cc(C(C)(C)C#N)ccn23)cc(OC(F)F)c1C(=O)N[C@@H]1C[C@@H]1F [Cpd 79]", "SIK2 (Homo sapiens, UniProt Q9H0K1)", "6.30 to 7.00"),
    ("COc1cc(-c2cnc3cc(C(C)(C)CO)ccn23)cc(OC(F)F)c1C(=O)NC1CC1 [Cpd 150]", "SIK2 (Homo sapiens, UniProt Q9H0K1)", "< 6.30"),
    ("COc1cc(-c2cnc3cc(C(C)(O)CN4CCCCC4)ccn23)cc(OC(F)F)c1C(=O)NC1CC1 (stereo not shown) [Cpd 185]", "SIK2 (Homo sapiens, UniProt Q9H0K1)", "< 6.30"),
    ("COc1cc(-c2cnc3cc(C4(C(=O)O)CC4)ccn23)cc(OC(F)F)c1C(=O)NC1CC1 [Cpd 114]", "SIK2 (Homo sapiens, UniProt Q9H0K1)", "< 6.30"),
]
